tested on: Cytiva hSCCMs; experiment: SALVO profiling of drug-evoked Ca2+ signal perturbation (fluo-4 confocal imaging); details: drug concentration producing a 20% change from control (no drug) in Ca2+ oscillation rate; regression of Figure 3 data
QUANTITY KIND: EC20 Rate (nM)

COc1ccc(CCN2CCC(Nc3nc4ccccc4n3Cc3ccc(F)cc3)CC2)cc1; 50
COc1cc(N)c(Cl)cc1C(=O)NC1CCN(CCCOc2ccc(F)cc2)CC1OC (stereo not drawn) [Cisapride, cisapride]; 445
CSc1ccc2c(c1)N(CCC1CCCCN1C)c1ccccc1S2 (stereo not drawn); 1120
O=C(NCC1CCCCN1)c1cc(OCC(F)(F)F)ccc1OCC(F)(F)F (stereo not drawn) [Flecainide, flecainide]; 215

All values here come from paper PMC4361473.
